Data credit: ChEMBL document CHEMBL1132940

Biological target: GABA-A receptor; alpha-1/beta-3/gamma-2 (Homo sapiens, UniProt P14867+P18507+P28472)
Sequence (P14867 whole entry): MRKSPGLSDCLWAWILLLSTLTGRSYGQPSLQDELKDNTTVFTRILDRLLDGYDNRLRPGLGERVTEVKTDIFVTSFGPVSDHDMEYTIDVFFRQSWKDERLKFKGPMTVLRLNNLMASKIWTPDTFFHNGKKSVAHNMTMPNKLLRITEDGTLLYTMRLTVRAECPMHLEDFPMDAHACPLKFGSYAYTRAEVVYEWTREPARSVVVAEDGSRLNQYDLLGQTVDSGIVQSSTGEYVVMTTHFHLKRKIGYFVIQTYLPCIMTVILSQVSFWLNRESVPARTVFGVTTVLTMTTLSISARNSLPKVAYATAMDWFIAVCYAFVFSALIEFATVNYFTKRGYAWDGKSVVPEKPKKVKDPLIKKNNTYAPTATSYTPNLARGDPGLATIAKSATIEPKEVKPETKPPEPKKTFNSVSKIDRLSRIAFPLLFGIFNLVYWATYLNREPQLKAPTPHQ
Sequence (P18507 whole entry): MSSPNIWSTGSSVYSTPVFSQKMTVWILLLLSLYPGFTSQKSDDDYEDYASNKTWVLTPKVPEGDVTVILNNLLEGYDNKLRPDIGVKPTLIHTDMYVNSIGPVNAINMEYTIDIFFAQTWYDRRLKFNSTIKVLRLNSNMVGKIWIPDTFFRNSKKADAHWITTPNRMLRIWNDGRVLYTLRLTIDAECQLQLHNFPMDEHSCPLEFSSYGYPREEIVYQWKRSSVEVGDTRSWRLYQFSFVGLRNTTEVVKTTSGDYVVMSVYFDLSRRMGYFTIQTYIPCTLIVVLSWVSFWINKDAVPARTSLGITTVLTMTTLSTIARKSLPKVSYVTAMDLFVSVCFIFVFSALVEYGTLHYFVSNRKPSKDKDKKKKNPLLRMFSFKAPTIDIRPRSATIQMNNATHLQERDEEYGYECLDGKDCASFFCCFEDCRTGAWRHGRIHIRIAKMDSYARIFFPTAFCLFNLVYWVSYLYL
Sequence (P28472 whole entry): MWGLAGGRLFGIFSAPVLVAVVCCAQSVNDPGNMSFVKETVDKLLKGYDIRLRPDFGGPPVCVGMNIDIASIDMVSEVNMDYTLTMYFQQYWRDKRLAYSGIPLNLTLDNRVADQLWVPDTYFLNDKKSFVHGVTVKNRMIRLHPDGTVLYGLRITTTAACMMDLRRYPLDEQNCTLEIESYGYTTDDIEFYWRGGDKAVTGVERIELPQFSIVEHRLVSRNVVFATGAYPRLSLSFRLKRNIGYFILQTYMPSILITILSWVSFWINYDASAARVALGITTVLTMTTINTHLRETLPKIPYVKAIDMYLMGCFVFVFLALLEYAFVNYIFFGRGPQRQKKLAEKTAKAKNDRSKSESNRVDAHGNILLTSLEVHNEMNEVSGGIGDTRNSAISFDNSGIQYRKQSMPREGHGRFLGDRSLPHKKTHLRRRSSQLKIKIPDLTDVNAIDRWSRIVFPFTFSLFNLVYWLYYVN
Assay: Binding affinity for human recombinant gamma-aminobutyric-acid (GABA) A receptor alpha-1-beta-3-gamma-2
Format: protein-complex assay
pKi: −log10 of the molar value.
Label rule, in plain words: pKi of 8 and up is 1 (yes), under 8 is 0 (no).

### Prompt Is pKi at least 8? Consider [N-]=[N+]=Nc1ccc2c(c1)C(c1ccccc1N=[N+]=[N-])=NCC(=O)N2
### Response 0 (no)

### Prompt Quick check: does C#Cc1ccc2ncc3c(=O)n(-c4ccccc4)[nH]c3c2c1 have pKi greater than or equal to 8?
### Response 1 (yes)

### Prompt Please tell me: is the compound COc1ccc2c(c1)[nH]c1c2ncc2[nH]c3ccccc3c21 at or over 8 in terms of pKi?
### Response 1 (yes)

### Prompt Has CN1C(=O)CN=C(c2cccs2)c2cc(Cl)ccc21 a recorded pKi greater than or equal to 8?
### Response 0 (no)

### Prompt Quick check: does CCc1c(C(=O)NN)[nH]cc2nc3cc(OC)c(OC)cc3c1-2 have pKi greater than or equal to 8?
### Response 0 (no)

### Prompt # bool: pKi of COCc1c(SC#N)[nH]cc2nc3ccc(OCc4ccccc4)cc3c1-2 >= 8
### Response 0 (no)

### Prompt Does the compound O=c1c2c[nH]c3ccc(Br)cc3c-2nn1-c1ccccc1 have recorded pKi that is 8 or more?
### Response 1 (yes)
